Biological target: UniProt:P00591
Sequence (P00591 1-450): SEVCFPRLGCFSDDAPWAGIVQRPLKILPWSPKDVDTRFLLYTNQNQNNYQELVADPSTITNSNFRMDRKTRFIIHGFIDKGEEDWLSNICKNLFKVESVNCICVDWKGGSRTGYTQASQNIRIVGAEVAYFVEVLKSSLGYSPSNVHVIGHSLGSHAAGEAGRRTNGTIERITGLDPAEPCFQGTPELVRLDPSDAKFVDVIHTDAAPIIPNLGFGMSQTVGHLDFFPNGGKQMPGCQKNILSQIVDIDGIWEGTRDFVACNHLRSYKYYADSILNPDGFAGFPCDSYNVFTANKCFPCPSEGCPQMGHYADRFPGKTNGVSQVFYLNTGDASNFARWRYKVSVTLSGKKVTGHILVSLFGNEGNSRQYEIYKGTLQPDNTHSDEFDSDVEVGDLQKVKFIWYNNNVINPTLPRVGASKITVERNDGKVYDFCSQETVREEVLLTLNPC
pKi: −log10 of the molar value.
Binary classification by pKi, with 4 as an inclusive lower bound for Fulfilled; all other cases are Not fulfilled.

**Query** Would you say COc1c(O)cc2oc3cc(O)c(CC=C(C)C)c(O)c3c(=O)c2c1CC=C(C)C shows pKi at minimum 4?
**Result** Fulfilled

**Query** Could you verify whether the entry CC(C)=CCc1c(O)cc2oc3cc(O)c(O)c(CC=C(C)C)c3c(=O)c2c1O shows pKi of no less than 4?
**Result** Fulfilled

**Query** Can COc1cc2oc3cc(OC)c(OC)c(CC=C(C)C)c3c(=O)c2c(O)c1CC=C(C)C be said to have pKi at or above 4?
**Result** Fulfilled

**Query** Does the compound CC(C)=CCc1c(O)c(CC=C(C)C)c2oc3c(O)cccc3c(=O)c2c1O have recorded pKi that is 4 or more?
**Result** Not fulfilled

====

molecular target: α-glucosidase (AG) type I from Saccharomyces cerevisiae (Saccharomyces cerevisiae); assay: biochemical; format: biochemical; set-up: purchased Sigma-Aldrich L-SLBX6245; settings: substrate p-nitrophenyl-α-D-glucopyranoside; read-out: α-Glucosidase Ki
Sequence (P53341 whole entry): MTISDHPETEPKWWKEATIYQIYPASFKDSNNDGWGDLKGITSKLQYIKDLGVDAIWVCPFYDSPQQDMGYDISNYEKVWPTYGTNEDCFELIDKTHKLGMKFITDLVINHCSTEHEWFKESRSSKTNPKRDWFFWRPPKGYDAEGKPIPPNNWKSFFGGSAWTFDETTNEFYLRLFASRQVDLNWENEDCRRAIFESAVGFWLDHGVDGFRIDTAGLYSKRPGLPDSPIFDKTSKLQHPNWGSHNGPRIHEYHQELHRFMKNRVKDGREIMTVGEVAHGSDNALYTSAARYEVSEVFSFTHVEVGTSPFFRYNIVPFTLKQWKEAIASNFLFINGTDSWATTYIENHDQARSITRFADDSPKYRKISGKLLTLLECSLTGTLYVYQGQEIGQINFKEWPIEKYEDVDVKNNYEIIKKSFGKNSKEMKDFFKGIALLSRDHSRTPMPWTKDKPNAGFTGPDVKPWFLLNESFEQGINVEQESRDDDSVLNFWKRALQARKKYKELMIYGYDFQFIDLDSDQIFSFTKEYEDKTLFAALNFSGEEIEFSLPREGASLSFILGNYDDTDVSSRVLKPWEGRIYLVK
pKi: −log10 of the molar value.
If the reported pKi equals or exceeds 4, assign yes. If not, assign no.

Observe how each entry below is paired with its result.
# compound, qualitative.label
data = [
    ("COc1c(O)cc2oc3cc4c(c(O)c3c(=O)c2c1CC=C(C)C)CCC(C)(C)O4", "yes"),
    ("COc1c(O)cc2oc3cc4c(c(O)c3c(=O)c2c1CC=C(C)C)C=CC(C)(C)O4 [Compound 1, 9-hydroxycalabaxanthone]", "no"),
    ("CC(C)=CCc1c(O)c(CC=C(C)C)c2oc3c(O)cccc3c(=O)c2c1O", "no"),
]

**Query** Quick check: does COc1cc2oc3cc(OC)c(OC)c(CC=C(C)C)c3c(=O)c2c(O)c1CC=C(C)C have pKi greater than or equal to 4?
**Result** yes

====

Target: UniProt P00591
Sequence (P00591 1-450): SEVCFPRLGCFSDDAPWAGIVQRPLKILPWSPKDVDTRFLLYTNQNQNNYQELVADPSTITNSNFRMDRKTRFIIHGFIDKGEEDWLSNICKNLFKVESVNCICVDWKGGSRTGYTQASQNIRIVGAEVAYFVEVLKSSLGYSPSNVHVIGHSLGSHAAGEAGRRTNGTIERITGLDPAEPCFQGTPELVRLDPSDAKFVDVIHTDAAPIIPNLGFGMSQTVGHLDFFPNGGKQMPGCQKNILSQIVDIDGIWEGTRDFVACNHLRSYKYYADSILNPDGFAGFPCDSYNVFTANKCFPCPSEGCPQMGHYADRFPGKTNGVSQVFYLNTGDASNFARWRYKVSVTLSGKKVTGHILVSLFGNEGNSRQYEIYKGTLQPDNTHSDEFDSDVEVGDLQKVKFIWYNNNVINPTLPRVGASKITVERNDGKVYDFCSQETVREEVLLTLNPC
measured.quantity: Ki (µM)
I only need the number, in µM, no unit after it.

**Query** I would be grateful if you could share the reported Ki for COc1c(O)cc2oc3cc4c(c(O)c3c(=O)c2c1CC=C(C)C)C=CC(C)(C)O4 [Compound 1, 9-hydroxycalabaxanthone] .
**Result** 138

**Query** // lookup Ki for COc1cc2oc3c(C)c(OC)c(CC=C(C)C)c(O)c3c(=O)c2c(CC=C(C)C)c1OC [Compound 11, 3,6-di-methoxy-4-methyl-α-mangostin]
**Result** 59.4

**Query** Which Ki reading was recorded for the compound COc1c(O)cc2oc3cc(O)c(CCC(C)C)c(O)c3c(=O)c2c1CCC(C)C [Compound 9, tetrahydro-α-mangostin] ?
**Result** 405
